Tested on: Radical scavenging activity
Assay protocol: Antioxidant activity assessed as DPPH radical scavenging activity after 30 mins
Format: functional
Recorded metric: IC50 (µM)

Molecule: O=C(/C=C/c1ccc(O)c(O)c1)O[C@@H]1C[C@](O)(C(=O)O)C[C@@H](O)[C@H]1OC(=O)c1cc(O)c(O)c(O)c1
IC50 / µM: 23.5

I. COC(=O)[C@]1(O)C[C@@H](O)[C@@H](OC(=O)c2cc(O)c(O)c(O)c2)[C@H](OC(=O)/C=C/c2ccc(O)c(O)c2)C1
II. O=C(/C=C/c1ccc(O)c(O)c1)O[C@@H]1C[C@](O)(C(=O)O)C[C@@H](O)[C@H]1O [CHLOROGENIC ACID]
Exercise: Lowest IC50? choose I or II Field: selected label. Fill in the label of the entry you choose.
Solution: I
(I: 12.9 µM, II: 39.5 µM)

* * *

Tested on: SW480
Assay protocol: Cytotoxicity against human SW480 cells after 72 hrs by MTT assay
Type: functional, cell-based
Test context: SW480, 72 h
Recorded metric: IC50 (µM)
Respond numerically; units are µM and should not be typed.

Compound: O=C(/C=C/c1ccc(O)c(O)c1)O[C@@H]1C[C@](O)(C(=O)O)C[C@@H](O)[C@H]1O [CHLOROGENIC ACID]
Target: SW480
Recorded number: 353
--
Compound: O=C(O[C@@H]1Cc2c(O)cc(O)cc2O[C@@H]1c1cc(O)c(O)c(O)c1)c1cc(O)c(O)c(O)c1 [EPIGALOCATECHIN GALLATE]
Target: SW480
Recorded number: 195
--
Compound: COC(=O)[C@]1(O)C[C@@H](O)[C@@H](OC(=O)c2cc(O)c(O)c(O)c2)[C@H](OC(=O)/C=C/c2ccc(O)c(O)c2)C1
Target: SW480
Recorded number: 160

Exercise: Give IC50 for the following compound: `O=C(/C=C/c1ccc(O)c(O)c1)O[C@@H]1C[C@](O)(C(=O)O)C[C@@H](O)[C@H]1OC(=O)c1cc(O)c(O)c(O)c1`
Solution: 134

* * *

System: HCT-116
Assay protocol: Cytotoxicity against human HCT116 cells after 72 hrs by MTT assay
Type: functional, cell-based
Test context: HCT-116, 72 h
Below: a set of entries, each annotated with reported IC50.
Respond with the bare value in µM.

Use these answered entries as a reference point.
Compound: O=C(O[C@@H]1Cc2c(O)cc(O)cc2O[C@@H]1c1cc(O)c(O)c(O)c1)c1cc(O)c(O)c(O)c1 [EPIGALOCATECHIN GALLATE]
IC50, µM: 161
//
Compound: O=C(/C=C/c1ccc(O)c(O)c1)O[C@@H]1C[C@](O)(C(=O)O)C[C@@H](O)[C@H]1O [CHLOROGENIC ACID]
IC50, µM: 367
//
Compound: O=C(/C=C/c1ccc(O)c(O)c1)O[C@@H]1C[C@](O)(C(=O)O)C[C@@H](O)[C@H]1OC(=O)c1cc(O)c(O)c(O)c1
IC50, µM: 154

Lab note: next compound to report on.
Exercise: Complete the entry with IC50 for `COC(=O)[C@]1(O)C[C@@H](O)[C@@H](OC(=O)c2cc(O)c(O)c(O)c2)[C@H](OC(=O)/C=C/c2ccc(O)c(O)c2)C1`
Solution: 190
